SYSTEM_TESTED: Beta-secretase 2 (Homo sapiens, UniProt Q9Y5Z0)
Sequence (Q9Y5Z0 whole entry, the tested form may be a part): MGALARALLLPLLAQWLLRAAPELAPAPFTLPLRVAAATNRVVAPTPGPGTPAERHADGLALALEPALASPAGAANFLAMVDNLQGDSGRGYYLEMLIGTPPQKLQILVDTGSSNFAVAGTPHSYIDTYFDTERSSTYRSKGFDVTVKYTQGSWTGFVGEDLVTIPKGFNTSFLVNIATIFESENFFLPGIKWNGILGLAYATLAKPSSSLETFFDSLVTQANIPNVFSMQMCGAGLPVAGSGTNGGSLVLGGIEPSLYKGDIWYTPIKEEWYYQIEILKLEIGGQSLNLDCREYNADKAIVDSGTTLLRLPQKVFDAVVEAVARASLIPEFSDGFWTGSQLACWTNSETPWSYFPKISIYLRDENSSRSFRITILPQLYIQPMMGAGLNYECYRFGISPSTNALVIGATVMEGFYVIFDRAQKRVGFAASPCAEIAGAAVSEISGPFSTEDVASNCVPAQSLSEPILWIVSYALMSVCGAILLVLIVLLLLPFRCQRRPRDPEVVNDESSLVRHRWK
PROCEDURE_SUMMARY: Inhibition Assay: Previously, one of the following compounds discussed below have been studied in memapsin 2 inhibition (Ghosh et al., 2008), which the others are previously unpublished. Given the closely related substrate specificity for memapsin 1 and memapsin 2, the inventors chose to screen these previously identified memapsin 2 inhibitors for lead compounds as memapsin 1 inhibitors. Recombinant memapsin 1 ectodomain was prepared as described by Turner et al. (2002) and assayed using a commercially purchased fluorescent substrate.
pKi: −log10 of the molar value.
ASSAY_METRIC: pKi

| COMPOUND | ASSAY_METRIC | NUMERIC_READOUT |
| --- | --- | --- |
| CC(C)CN1CCNC(C(O)C(Cc2ccccc2)NC(=O)c2cc(C(=O)NC(C)c3ccccc3)cc(N(C)S(C)(=O)=O)c2)C1 (centres undefined) | pKi | 5.22 |
| Cc1oncc1CN(C(=O)CCC(C1CCCCC1)N1Cc2cc(Oc3ccccc3)ccc2N=C1N)C1CCCCC1 (centres undefined) | pKi | 7.15 |

I. CC(C)CNC(=O)C(NCC(O)C(Cc1ccccc1)NC(=O)c1cccc(C(=O)N(C)C(C)c2ccccc2)c1)C(C)O (centres undefined)
II. CCCC(O)C(NCC(O)C(Cc1ccccc1)NC(=O)c1cc(C)cc(C(=O)N(C)C(C)c2ccccc2)c1)C(=O)NCC(C)C (centres undefined)
Identify the entry with the smaller pKi: I or II . Answer = label.
I
(I: 7.20, II: 11.85)

Just for reference, ChEMBL document CHEMBL3638586 is where these values come from.
